Assay: Aqueous solubility of the compound at pH 2 by nephelometry
Type: physicochemical
parameter: solubility kinetic

CN1CCN(CCNc2nc(Nc3ccc(F)c(Cl)c3)nc3ccccc23)CC1.Cl.Cl
> 90 µM
CN1CCC(Nc2nc(Nc3ccc(Cl)c(F)c3)nc3ccccc23)CC1.Cl.Cl
> 90 µM

Problem: What does the data say about its solubility kinetic? Entry: CN1CCC(Nc2nc(Nc3ccc(F)c(Cl)c3)nc3ccccc23)CC1.Cl.Cl
Solution: > 90 µM

Problem: What does the data say about its solubility kinetic? Entry: COc1cc2nc(Nc3ccc(F)cc3)nc(NCC3CCCO3)c2cc1OC (configuration not stated)
Solution: 25 to 50 µM

* * *

Below, each entry is listed alongside its reported pEC50.
Test system: Plasmodium falciparum
Test: Antimalarial activity against chloroquine and mefloquine resistant Plasmodium falciparum W2mef infected in human erythrocytes incubated for 72 hrs by LDH assay
Type: functional, cell-based
The meaning of pEC50 here: minus log10 of the concentration in molar units.

C[C@H]1[C@H](OC(=O)CCC(=O)O)O[C@@H]2O[C@@]3(C)CC[C@H]4[C@H](C)CC[C@@H]1[C@@]24OO3 [ARTESUNATE]
8.22
CN1CCN(CCNc2nc(Nc3ccc(F)c(Cl)c3)nc3ccccc23)CC1.Cl.Cl
7.31
CN1CCN(CCNc2nc(Nc3ccc(Cl)c(F)c3)nc3ccccc23)CC1.Cl.Cl
7.24
CN1CCC(Nc2nc(Nc3ccc(Cl)c(F)c3)nc3ccccc23)CC1.Cl.Cl
7.21
CN1CCN(CCNc2nc(Nc3ccc(F)cc3)nc3ccccc23)CC1
6.91

Problem: What does the data say about its pEC50? Entry: Clc1cc(Nc2nc(NCc3ccccc3)c3ccccc3n2)ccc1Br
Solution: 6.89

* * *

Assay: Aqueous solubility of the compound at pH 6.5 by nephelometry
Assay type: physicochemical
parameter: solubility kinetic

Problem: What does the data say about its solubility kinetic? Entry: CN1CCN(CCNc2nc(Nc3ccc(Cl)c(F)c3)nc3ccccc23)CC1.Cl.Cl
Solution: 10.9 to 22 µM

Problem: What does the data say about its solubility kinetic? Entry: CN1CCN(CCNc2nc(Nc3ccc(F)c(Cl)c3)nc3ccccc23)CC1.Cl.Cl
Solution: 11.3 to 23 µM

* * *

Assay: Half life in mouse liver microsomes at 1 uM in presence of NADPH by LC-MS method
Format: ADME, microsome
parameter: half-life at 1 µM (min)
Respond numerically; units are min and should not be typed.

COc1ccc(Nc2nc(NCc3ccccc3)c3ccccc3n2)cc1
14
CN1CCN(CCNc2nc(Nc3ccc(Cl)c(F)c3)nc3ccccc23)CC1.Cl.Cl
47
CN1CCN(CCNc2nc(Nc3ccc(F)c(Cl)c3)nc3ccccc23)CC1.Cl.Cl
30
CN1CCC(Nc2nc(Nc3ccc(Cl)c(F)c3)nc3ccccc23)CC1.Cl.Cl
192

Problem: What does the data say about its half-life at 1 µM? Entry: CN1CCC(Nc2nc(Nc3ccc(F)c(Cl)c3)nc3ccccc23)CC1.Cl.Cl
Solution: 149

Problem: What does the data say about its half-life at 1 µM? Entry: COc1cc2nc(Nc3ccc(F)cc3)nc(NCC3CCCO3)c2cc1OC (configuration not stated)
Solution: 24

Problem: What does the data say about its half-life at 1 µM? Entry: COc1cc2nc(Nc3ccc(F)cc3)nc(NCc3ccccc3)c2cc1OC
Solution: 49

* * *

Below, each entry is listed alongside its reported selectivity ratio.
Test: Selectivity index, ratio of EC50 for human HepG2 cells to EC50 for Plasmodium falciparum 3D7 asexual blood stage infected in human erythrocytes
Type: toxicity, cell-based
Details: read-out: Ratio EC50
Answer with a number only.

Worked examples, 3 molecules total:
CN1CCC(Nc2nc(Nc3ccc(F)cc3)nc3ccccc23)CC1
227
CN1CCC(Nc2nc(Nc3ccc(Cl)c(F)c3)nc3ccccc23)CC1.Cl.Cl
179
Fc1ccc(Nc2nc(NCc3ccccc3)c3ccccc3n2)cc1
67

Problem: What does the data say about its selectivity ratio? Entry: NC(=O)c1ccc(Nc2nc(NCC3CCCO3)c3ccccc3n2)cc1 (stereo not drawn)
Solution: 50

Problem: What does the data say about its selectivity ratio? Entry: CN1CCN(CCNc2nc(Nc3ccc(Cl)c(F)c3)nc3cccnc23)CC1
Solution: 96

Problem: What does the data say about its selectivity ratio? Entry: CC(=O)Nc1ccc(Nc2nc(NCC3CCCO3)c3ccccc3n2)cc1 (stereo not drawn)
Solution: 140

Problem: What does the data say about its selectivity ratio? Entry: CN(C)c1nc(Nc2ccc(F)cc2)nc2ccccc12
Solution: 48

Problem: What does the data say about its selectivity ratio? Entry: Fc1ccc(Nc2nc(NCc3ccccc3)c3ccncc3n2)cc1
Solution: 33

* * *

Below, each entry is listed alongside its reported microsomal CLint at 1 µM.
Assay: Intrinsic clearance in human liver microsomes at 1 uM in presence of NADPH by LC-MS method
Assay type: ADME, microsome
Conditions: read-out: CLH

Worked examples, 2 compounds total:
CN1CCN(CCNc2nc(Nc3ccc(F)c(Cl)c3)nc3ccccc23)CC1.Cl.Cl
< 7 µL/min/mg
CN1CCC(Nc2nc(Nc3ccc(F)c(Cl)c3)nc3ccccc23)CC1.Cl.Cl
< 7 µL/min/mg

Problem: What does the data say about its microsomal CLint at 1 µM? Entry: COc1cc2nc(Nc3ccc(F)cc3)nc(NCc3ccccc3)c2cc1OC
Solution: < 7 µL/min/mg

* * *

Assay: Selectivity index, ratio of EC50 for human HepG2 cells to EC50 for Plasmodium falciparum 3D7 asexual blood stage infected in human erythrocytes
Type: toxicity, cell-based
Details: read-out: Ratio EC50
Checkbox rule: selectivity ratio lower than 70 = class 1; selectivity ratio not lower than 70 = class 0.

Use these answered entries as a reference point.
COc1cccc(Nc2nc(NCC3CCCO3)c3ccccc3n2)c1 (stereo not drawn)
class 1
CN1CCN(CCNc2nc(Nc3ccc(F)c(Cl)c3)nc3cccnc23)CC1
class 0
Cn1cnc2nc(Nc3ccc(F)cc3)nc(NCc3ccccc3)c21
class 1
CNc1nc(Nc2ccc(F)cc2)nc2ccccc12
class 0
COc1ccc(Nc2nc(N3CCOCC3)c3ccccc3n2)cc1
class 1
FC(F)(F)c1ccc(Nc2nc(NCc3ccccc3)c3ccccc3n2)cn1
class 0

# input for lookup
Problem: Please state whether selectivity ratio is below 70 for Fc1cc(Nc2nc(NCc3ccccc3)c3ccccc3n2)ccc1Cl
Solution: class 1

* * *

Experiment: Hepatic extraction ratio in human liver microsomes at 1 uM in presence of NADPH by LC-MS method
Type: ADME, microsome
Conditions: read-out: ERH
Below, each entry is listed alongside its reported hepatic extraction ratio at 1 µM.

Worked examples, 2 compounds total:
COc1cc2nc(Nc3ccc(F)cc3)nc(NCc3ccccc3)c2cc1OC
< 0.22
CN1CCC(Nc2nc(Nc3ccc(F)c(Cl)c3)nc3ccccc23)CC1.Cl.Cl
< 0.22

Problem: What does the data say about its hepatic extraction ratio at 1 µM? Entry: CN1CCN(CCNc2nc(Nc3ccc(F)c(Cl)c3)nc3ccccc23)CC1.Cl.Cl
Solution: < 0.22

* * *

Experiment: Aqueous solubility of the compound at pH 2 by nephelometry
Assay type: physicochemical
Below, each entry is listed alongside its reported solubility kinetic.

COc1ccc(Nc2nc(NCc3ccccc3)c3ccccc3n2)cc1
25 to 50 µM
COc1cc2nc(Nc3ccc(F)cc3)nc(NCc3ccccc3)c2cc1OC
1.6 to 3.1 µM

Problem: What does the data say about its solubility kinetic? Entry: CN1CCN(CCNc2nc(Nc3ccc(Cl)c(F)c3)nc3ccccc23)CC1.Cl.Cl
Solution: > 90 µM

* * *

Tested on: Plasmodium falciparum
Assay: Antimalarial activity against chloroquine and mefloquine resistant Plasmodium falciparum W2mef infected in human erythrocytes incubated for 72 hrs by LDH assay
Format: functional, cell-based
Below, each entry is listed alongside its reported pEC50.
The meaning of pEC50 here: minus log10 of the concentration in molar units.

Problem: What does the data say about its pEC50? Entry: CN1CCC(Nc2nc(Nc3ccc(F)c(Cl)c3)nc3ccccc23)CC1.Cl.Cl
Solution: 7.27

Problem: What does the data say about its pEC50? Entry: Fc1cc(Nc2nc(NCc3ccccc3)c3ccccc3n2)ccc1Cl
Solution: 7.12

Problem: What does the data say about its pEC50? Entry: Fc1ccc(Nc2nc(NCc3ccccc3)c3ccccc3n2)cc1Cl
Solution: 7.10

* * *

Below, each entry is listed alongside its reported solubility kinetic.
Assay: Aqueous solubility of the compound at pH 6.5 by nephelometry
Type: physicochemical

Worked examples, 4 compounds total:
COc1cc2nc(Nc3ccc(F)cc3)nc(NCC3CCCO3)c2cc1OC (stereo not given)
3.1 to 6.3 µM
COc1cc2nc(Nc3ccc(F)cc3)nc(NCc3ccccc3)c2cc1OC
1.6 to 3.1 µM
COc1ccc(Nc2nc(NCc3ccccc3)c3ccccc3n2)cc1
1.6 to 3.1 µM
CN1CCC(Nc2nc(Nc3ccc(Cl)c(F)c3)nc3ccccc23)CC1.Cl.Cl
4.2 to 8.4 µM

Problem: What does the data say about its solubility kinetic? Entry: CN1CCC(Nc2nc(Nc3ccc(F)c(Cl)c3)nc3ccccc23)CC1.Cl.Cl
Solution: 11.3 to 23 µM

* * *

Below, each entry is listed alongside its reported selectivity ratio.
Experiment: Selectivity index, ratio of EC50 for human HepG2 cells to EC50 for Plasmodium falciparum 3D7 asexual blood stage infected in human erythrocytes
Format: toxicity, cell-based
Conditions: read-out: Ratio EC50
Answer with a number only.

Worked examples, 10 compounds total:
Clc1ccc(Nc2nc(NCc3ccco3)c3ccccc3n2)cc1
71
CN1CCN(CCNc2nc(Nc3ccc(Cl)c(F)c3)nc3ccccc23)CC1.Cl.Cl
275
CNc1nc(Nc2ccc(OC)cc2)nc2ccccc12
168
Fc1ccc(Nc2nc(NCc3ccccc3)c3ccccc3n2)cc1Cl
114
Cn1ncc2c(NCc3ccccc3)nc(Nc3ccc(F)cc3)nc21
3
CN1CCN(CCNc2nc(Nc3ccc(F)cc3)nc3ccccc23)CC1
362
Fc1ccc(Nc2nc(NCCN3CCOCC3)c3ccccc3n2)cc1
256
Brc1ccc(Nc2nc(NCc3ccco3)c3ccccc3n2)cc1
153
Clc1cc(Nc2nc(NCc3ccccc3)c3ccccc3n2)ccc1Br
40
Fc1ccccc1Nc1nc(NCC2CCCO2)c2ccccc2n1 (stereo unspecified)
75

Problem: What does the data say about its selectivity ratio? Entry: COc1ccc(Nc2nc(NCc3ccccc3)c3ccccc3n2)cc1
Solution: 32
